Assay: NCI Yeast Anticancer Drug Screen. Data for the cln2 rad14 strain (AID 165);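 note: 0% = growth equal to vehicle treated cultures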
Conditions: S. cerevisiae cln2 rad14 strain, at 50.0 µM, active compounds read high
About 79,000 compounds went through this panel and 15% of them were active in at least one assay; those are over-represented in the sample as a whole.
Kindly return class 1 if reported growth inhibition is no lower than -20%; return class 0 if it is lower.

Previously resolved entries follow.
{"MOLECULE": "CCCCOP(=S)(N1CCCCC1)N1CCCCC1", "ASSIGNED_LABEL": "class 1"}
{"MOLECULE": "O=[N+]([O-])c1cccc(N=Nc2ccc(N(CCCl)CCCl)cc2)c1", "ASSIGNED_LABEL": "class 0"}
{"MOLECULE": "COc1ccc(OC)c(CCc2cc(OC)ccc2OC)c1", "ASSIGNED_LABEL": "class 0"}
{"MOLECULE": "O=[N+]([O-])C(CO)CCCC(CO)[N+](=O)[O-] (configuration not stated)", "ASSIGNED_LABEL": "class 0"}
{"MOLECULE": "Cc1ccc(OP(=O)(Oc2ccc(C)cc2)Oc2ccc(C)cc2)cc1.Cc1ccc(OP(=O)(Oc2ccc(C)cc2)Oc2ccc(C)cc2)cc1.Cc1ccc(OP(=O)(Oc2ccc(C)cc2)Oc2ccc(C)cc2)cc1.Cc1ccc(OP(=O)(Oc2ccc(C)cc2)Oc2ccc(C)cc2)cc1.[Cr+3].[O-][Cl+3]([O-])([O-])O", "ASSIGNED_LABEL": "class 1"}

Please find the next molecule below.
I'd appreciate it if you could say whether CN1C2CCC1CC(O)(c1ccc(Cl)cc1)C2 (configuration not stated) has growth inhibition at least equal to -20%.
class 1

---

Measured growth inhibition, listed per entry for reference.
Assay: NCI Yeast Anticancer Drug Screen. Data for the rad50 strain (AID 155);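 note: 0% = growth of vehicle-only cultures of the same strain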
Settings: S. cerevisiae rad50 strain growth inhibition; at 50.0 µM; active compounds read high
The panel holds about 79,000 compounds, 15% with a hit somewhere; the sample as a whole holds those more often.
Value expressed in %; do not type the unit.

{"COMPOUND": "CC(C)C(Br)C(=O)O (stereo not drawn)", "growth inhibition / %": -6.85}
{"COMPOUND": "C=C1CCN2CC[C@@H](OC(=O)/C(C)=C\\C)[C@@H]12", "growth inhibition / %": 1.65}
{"COMPOUND": "CCCC(=O)[O-].CCCC(=O)[O-].N.N.N.N.[Co+3].[O-][Cl+3]([O-])([O-])[O-]", "growth inhibition / %": -5.15}
{"COMPOUND": "O=[N+]([O-])c1ccc(OCCOCCOc2ccc(S(=O)(=O)F)cc2)c(Cl)c1", "growth inhibition / %": 56.2}
{"COMPOUND": "CN(C)[C@@H]1C(=O)C(C(N)=O)=C(O)[C@]2(O)C(=O)C3C(=O)c4c(O)ccc(Cl)c4[C@](C)(O)[C@H]3C[C@@H]12 (stereo partly drawn)", "growth inhibition / %": -6.15}

Consider CCCC[As](=O)(O)CC(C)C . Its measured growth inhibition is -3.2

Consider COc1ccccc1[As](=O)(O)c1ccccc1 . Its measured growth inhibition is -6.45

---

Assay: NCI Yeast Anticancer Drug Screen. Data for the cln2 rad14 strain (AID 165);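 note: 0% = growth equal to vehicle treated cultures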
Details: S. cerevisiae cln2 rad14 strain, at 50.0 µM, active compounds read high
This is part of a sample that, as a whole, favours compounds with a hit. Of some 79,000 tested, about 15% had one in any assay.
Measured growth inhibition, listed per entry for reference.
Value expressed in %; do not type the unit.

Consider CC/C=C/C1(C(C)C)C(=O)NC(=O)NC1=O (tested in a mixture with another compound) . Its measured growth inhibition is -27.4

Consider CCNC1=C(N2CC2)C(=O)C(NCC)=C(N2CC2)C1=O . Its measured growth inhibition is 8.1

Consider O=C1NCN(c2ccccc2)C12CCN(Cc1ccccc1)CC2 . Its measured growth inhibition is 12.3

Consider O=C(CCl)Oc1ccccc1 . Its measured growth inhibition is -10.8

Consider CC12CCC3C(CC(N4CC4)C4(O)CC(O)CCC34C)C1CCC2=O (centres undefined) . Its measured growth inhibition is 14.8

Consider C1CCNCC1.COc1ccccc1C(=O)[CH-]C(=O)C(F)(F)F.COc1ccccc1C(=O)[CH-]C(=O)C(F)(F)F.COc1ccccc1C(=O)[CH-]C(=O)C(F)(F)F.COc1ccccc1C(=O)[CH-]C(=O)C(F)(F)F.[Eu+3] . Its measured growth inhibition is 34.1

Consider C[N+]1([O-])C2CCC1CC(O)C2 (centres undefined) . Its measured growth inhibition is 16.2

Consider O=c1[nH]c(=O)c2[nH]c(N=Nc3ccc(N(CCCl)CCCl)cc3)nc2[nH]1 . Its measured growth inhibition is 38.1

Consider CC1CCC2C(C)C(=O)OC3OC4(C)CCC1C32OO4 (centres undefined) . Its measured growth inhibition is 27.8
